Just for reference, the NIST ThermoML archive (doi:10.1021/je800218g) is where these values come from.

assay: activity coefficient (dimensionless); of the first substance listed, at infinite dilution; xn = mol fraction of the nth substance listed
conditions: 343.15 K; Liquid; Chromatography; x1 = 0
Answer No if activity coefficient is under 50, and Yes if it is 50 or more.

compound: Cc1cccc(C)c1 [1,3-dimethylbenzene] + CCn1cc[n+](C)c1.F[B-](F)(F)F
label.value: No

Now consider a different compound.
**Query** I'd appreciate it if you could say whether CC#N [acetonitrile] + CCn1cc[n+](C)c1.F[B-](F)(F)F has activity coefficient at least equal to 50.
**Result** No

###

assay: activity coefficient (dimensionless); of the first substance listed, at infinite dilution; xn = mol fraction of the nth substance listed
conditions: 333.15 K; Liquid; Chromatography; x1 = 0
Where activity coefficient equals or exceeds 5, the correct label is Met; where it does not, the label is Not met.

Previously resolved entries follow.
compound: ClC(Cl)(Cl)Cl [tetrachloromethane] + CCn1cc[n+](C)c1.F[B-](F)(F)F
label.value: Not met

compound: CC#N [acetonitrile] + CCn1cc[n+](C)c1.F[B-](F)(F)F
label.value: Not met

compound: Cc1ccccc1C [1,2-dimethylbenzene] + CCn1cc[n+](C)c1.F[B-](F)(F)F
label.value: Not met

**Query** Does CCCCCCC [heptane] + CCn1cc[n+](C)c1.F[B-](F)(F)F have a reported activity coefficient of at least 5?
**Result** Met

**Query** In plain terms: is recorded activity coefficient at least 5 for C1=CCCCC1 [cyclohexene] + CCn1cc[n+](C)c1.F[B-](F)(F)F ?
**Result** Met
